# EXPERIMENT_SUMMARY: Kinetic solubility of the compound in 0.01M HCl at pH 2 by nephelometric method
# Type: physicochemical
# PROTOCOL_CONDITIONS: read-out: Kinetic_solubility
OBSERVATION_TYPE: solubility kinetic

O=C(Nc1ccc(F)c(C(F)(F)F)c1)Nc1ccc(F)c(C(F)(F)F)c1 : < 1.6 µg/mL
O=C(Nc1ccncc1)Nc1ccc(F)c(C(F)(F)F)c1 : 6.3 to 12.5 µg/mL
O=C(Nc1ccnc(C(F)(F)F)c1)Nc1ccc(F)c(C(F)(F)F)c1 : 3.1 to 6.3 µg/mL
O=C(Nc1ccc(F)c(C(F)(F)F)c1)Nc1ccccn1 : 1.6 to 3.1 µg/mL
O=C(Nc1ccnc(C(F)(F)F)c1)Nc1ccc2c(c1)OC(F)(F)O2 : 3.1 to 6.3 µg/mL
O=C(Nc1cccnc1)Nc1ccc(F)c(C(F)(F)F)c1 : 50 to 100 µg/mL
O=C(Nc1ccc2c(c1)OC(F)(F)O2)Nc1ccc2c(c1)OC(F)(F)O2 : < 1.6 µg/mL
N#Cc1ccc(NC(=O)Nc2ccnc(C(F)(F)F)c2)cc1 : 1.6 to 3.1 µg/mL
O=C(Nc1ccnc(C(F)(F)F)c1)Nc1ccnc(C(F)(F)F)c1 : 12.5 to 25 µg/mL
O=C(Nc1ccc(C(=O)O)cc1)Nc1ccc(F)c(C(F)(F)F)c1 : < 1.6 µg/mL
O=C(Nc1cnccn1)Nc1cnccn1 : 6.3 to 12.5 µg/mL
Cc1cc(NC(=O)Nc2ccc(F)c(C(F)(F)F)c2)on1 : 12.5 to 25 µg/mL
O=C(Nc1ccc(F)c(C(F)(F)F)c1)Nc1cnccn1 : 1.6 to 3.1 µg/mL
O=C(Nc1ccc2c(c1)OC(F)(F)O2)Nc1ccc(F)c(C(F)(F)F)c1 : < 1.6 µg/mL
O=C(Nc1cccc(C(=O)O)c1)Nc1ccc(F)c(C(F)(F)F)c1 : 1.6 to 3.1 µg/mL
CC(=O)c1ccc(NC(=O)Nc2ccc(F)c(C(F)(F)F)c2)cc1 : < 1.6 µg/mL
N#Cc1ccc(NC(=O)Nc2ccc(F)c(C(F)(F)F)c2)cc1 : < 1.6 µg/mL
NC(=O)c1ccccc1NC(=O)Nc1ccc(F)c(C(F)(F)F)c1 : 1.6 to 3.1 µg/mL
O=C(Nc1ccncc1)Nc1ccncc1 : > 100 µg/mL
NC(=O)c1ccc(NC(=O)Nc2ccc(F)c(C(F)(F)F)c2)cc1 : 6.3 to 12.5 µg/mL
